For each entry below, report its sensitivity index value.
Assay: Absorbance at photostationary state (PSS) under simulated sunlight or 365 nm light
Type: physicochemical
Conditions: ratio of PSS under 365 nm light to PSS under full spectrum light (without UV blocking film)
Answers are plain numbers.

Before answering, review these 4 worked examples.
[
  {
    "molecule": "Cc1cc(-c2sc(-c3sc(C)c(C)c3C)cc2C2=C(c3cc(-c4sc(C)c(C)c4C)sc3-c3cc(C)c(C)s3)C(F)(F)C(F)(F)C2(F)F)sc1C [S148]",
    "sensitivity index": 1.63
  },
  {
    "molecule": "COc1ccc(-c2sc(-c3ccc(C#N)cc3)cc2C2=C(c3cc(-c4ccc(C#N)cc4)sc3-c3ccc(OC)cc3)C(F)(F)C(F)(F)C2(F)F)cc1 [S085]",
    "sensitivity index": 1.16
  },
  {
    "molecule": "COc1ccc(-c2sc(-c3ccc(OCCOc4ccc(N(c5ccc(Cl)cc5)c5ccc(Cl)cc5)cc4)cc3)cc2C2=C(c3cc(-c4ccc(OCCOc5ccc(N(c6ccc(Cl)cc6)c6ccc(Cl)cc6)cc5)cc4)sc3-c3ccc(OC)cc3)C(F)(F)C(F)(F)C2(F)F)cc1 [S090]",
    "sensitivity index": 1.71
  },
  {
    "molecule": "CC(C)(C)c1ccc(-c2oc3cc4c(cc3c2C2=C(c3c(-c5ccc(C(C)(C)C)cc5)oc5cc6c(cc35)OCO6)C(F)(F)C(F)(F)C2(F)F)OCO4)cc1 [S163]",
    "sensitivity index": 2.12
  }
]

Batch: sensitivity index for all items listed.
1. COc1ccc2c(C3=C(c4c(-c5ccc(C(C)(C)C)cc5)oc5cc(OC)ccc45)C(F)(F)C(F)(F)C3(F)F)c(-c3ccc(C(C)(C)C)cc3)oc2c1 [S151]
2. Cc1cc(-c2cc(C3=C(c4cc(-c5cc(C)c(C)s5)sc4-c4cc(C)c(C)s4)C(F)(F)C(F)(F)C3(F)F)c(-c3cc(C)c(C)s3)s2)sc1C [S011]
3. CC(C)(C)c1ccc(-c2cc(C3=C(c4cc(-c5ccc(C(C)(C)C)s5)sc4-c4ccc(O[Si](O[Si](C)(C)C)(O[Si](C)(C)C)O[Si](C)(C)C)cc4)C(F)(F)C(F)(F)C3(F)F)c(-c3ccc(O[Si](O[Si](C)(C)C)(O[Si](C)(C)C)O[Si](C)(C)C)cc3)s2)s1 [S118]
4. CCOc1ccc(-c2cc(C3=C(c4cc(-c5ccc(OCC)cc5)sc4-c4ccc(OCC)cc4)C(F)(F)C(F)(F)C3(F)F)c(-c3ccc(OCC)cc3)s2)cc1 [S091]
5. CC(C)(C)c1ccc(-c2cc(C3=C(c4cc(-c5ccc(C(C)(C)C)cc5)sc4-c4ccc(C(C)(C)C)cc4)C(F)(F)C(F)(F)C3(F)F)c(-c3ccc(C(C)(C)C)cc3)s2)cc1 [S042]
6. COc1ccc(-c2cc(C3=C(c4cc(-c5ccc(C#N)cc5)sc4-c4ccc(OC)cc4)C(F)(F)C(F)(F)C3(F)F)c(-c3ccc(C#N)cc3)s2)cc1 [S087]

3.80
1.81
1.52
1.75
2.40
1.92

====

For each entry below, report its Absorbance at PSS, 365 nm value.
Experiment: Absorbance at photostationary state (PSS) under simulated sunlight or 365 nm light
Format: physicochemical
Conditions: 365 nm light source; 2.0×10^−5 M in triglyme
Give bare numbers.

Before answering, review these 3 worked examples.
[
  {
    "molecule": "COCCOCCOCCOC(C)(C)c1ccc(-c2cc(C3=C(c4cc(-c5ccc(C(C)(C)OCCOCCOCCOC)cc5)sc4-c4ccc(C(C)(C)C)cc4)C(F)(F)C(F)(F)C3(F)F)c(-c3ccc(C(C)(C)C)cc3)s2)cc1 [S068]",
    "value_measured": 0.239
  },
  {
    "molecule": "CC(=O)c1ccc(-c2cc(C3=C(c4cc(-c5ccccc5)sc4-c4ccc(C(C)(C)C)cc4)C(F)(F)C(F)(F)C3(F)F)c(-c3ccc(C(C)(C)C)cc3)s2)cc1 [S065]",
    "value_measured": 0.281
  },
  {
    "molecule": "COc1ccc(-c2sc(-c3ccc(OCCOc4ccc(N(c5ccc(Cl)cc5)c5ccc(Cl)cc5)cc4)cc3)cc2C2=C(c3cc(-c4ccc(OCCOc5ccc(N(c6ccc(Cl)cc6)c6ccc(Cl)cc6)cc5)cc4)sc3-c3ccc(OC)cc3)C(F)(F)C(F)(F)C2(F)F)cc1 [S090]",
    "value_measured": 0.183
  }
]

Batch: Absorbance at PSS, 365 nm for all items listed.
1. FC1(F)C(c2c(-c3ccccc3)sc3ccccc23)=C(c2c(-c3ccccc3)sc3ccccc23)C(F)(F)C1(F)F [S014]
2. FC1(F)C(c2cc(-c3ccccc3)sc2-c2ccccc2)=C(c2cc(-c3ccc(Cl)cc3)sc2-c2ccccc2)C(F)(F)C1(F)F [S006]

1: 0.011; 2: 0.141
